# TESTED_TARGET: T1, human ceruloplasmin (human, UniProt P00450 20-1065)
# T1 construct: also called CP; purified CP
# T1 sequence: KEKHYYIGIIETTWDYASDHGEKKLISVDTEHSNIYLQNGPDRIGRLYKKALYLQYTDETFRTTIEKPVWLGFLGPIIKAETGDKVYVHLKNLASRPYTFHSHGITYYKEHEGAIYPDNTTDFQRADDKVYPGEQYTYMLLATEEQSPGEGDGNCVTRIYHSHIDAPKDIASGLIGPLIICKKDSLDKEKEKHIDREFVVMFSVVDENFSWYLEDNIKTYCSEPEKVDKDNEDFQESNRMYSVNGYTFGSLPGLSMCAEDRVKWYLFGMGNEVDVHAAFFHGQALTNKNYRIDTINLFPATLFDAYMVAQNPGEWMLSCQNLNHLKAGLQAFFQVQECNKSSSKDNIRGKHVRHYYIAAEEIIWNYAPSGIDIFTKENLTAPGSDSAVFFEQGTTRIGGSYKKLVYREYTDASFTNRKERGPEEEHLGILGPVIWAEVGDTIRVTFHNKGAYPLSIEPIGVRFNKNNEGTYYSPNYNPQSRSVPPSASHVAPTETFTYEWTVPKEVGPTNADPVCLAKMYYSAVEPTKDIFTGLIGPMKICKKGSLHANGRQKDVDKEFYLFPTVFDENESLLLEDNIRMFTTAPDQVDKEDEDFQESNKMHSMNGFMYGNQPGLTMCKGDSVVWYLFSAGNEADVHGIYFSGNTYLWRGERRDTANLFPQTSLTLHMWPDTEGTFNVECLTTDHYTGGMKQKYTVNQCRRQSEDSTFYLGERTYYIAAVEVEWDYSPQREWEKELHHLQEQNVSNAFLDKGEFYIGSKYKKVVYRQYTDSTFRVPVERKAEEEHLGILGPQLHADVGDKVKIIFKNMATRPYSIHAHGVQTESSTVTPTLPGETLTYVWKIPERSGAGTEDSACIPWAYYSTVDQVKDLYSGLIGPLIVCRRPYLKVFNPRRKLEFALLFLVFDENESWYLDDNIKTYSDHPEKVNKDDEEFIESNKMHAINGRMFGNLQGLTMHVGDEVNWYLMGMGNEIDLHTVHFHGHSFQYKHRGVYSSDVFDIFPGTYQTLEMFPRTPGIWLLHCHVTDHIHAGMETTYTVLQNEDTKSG
# MEASUREMENT_NOTES: capture ELISA: mAb (CM, 50 ng/mL) on anti-rabbit IgG-Fc; endogenous CP in Li-heparin human plasma 1:10,000
# Description: Ceruloplasmin binding by the 28 recombinant anti-CP mAbs was tested as follows. Clear 96-well plates (Nunc, Maxisorp) were coated and incubated overnight at 4 degrees with 10 ug/mL goat anti-rabbit IgG-Fc (Bethyl Laboratories) in BupH carbonate-bicarbonate buffer (ThermoFisher). The coating solution was discarded, and the plates were blocked with 1% BSA in PBS at room temperature for 2 hours and then the blocking solution was discarded. […]
OUTCOME_MEASURE: A450
Answer format: value, then unit.

A selection of reference data follows.
BINDER: anti-CP mAb G (antibody, V domains shown, Recombinant full-length rabbit IgG from HEK-293; also called mAb3) VH: QSLEESGGRLVTPGTLLTLTCTVSGFSLSSNAMSWVRQAPGEGLEWIGTISSRGSTYYANWAKGRFTISKTSTTVDLKITSPTTEDTATYFCARSSLAGYEPYYFKLWGQGTLVTVSS VL: DVVMTQTASPVSAAVGGTVTIKCQASESISSYLAWYQQKPGQPPKLLIYGASDLASGVPSRFKGSGSGTEFTLTISDLECADAATYYCQSYYGLSRNGYGNVFGGGTEVVVKG
OUTCOME_MEASURE: A450
EXPERIMENTAL_RESULT: 1.18 A450
--
BINDER: anti-CP mAb D (antibody, V domains shown, Recombinant full-length rabbit IgG from HEK-293; tested as conditioned medium, Protein A-purified and biotinylated) VH: QEQLVESGGGLVQPEGSLTLTCKASGFDFSSYWMCWVRQAPGKRPEWIACIYGGDGTSYFAGWAKGRFTISKTSSTTVTLQMTSLTAADTATYFCARADYYVYVDGGYGHAYDLWGPGTLVTVSS VL: DIVMTQTPASVEAAVGGSVTIKCQASDDIYSYLAWYQQKPGQPPKLLIFDASSLPSGVPSRFKGSGSGTQFTLTISGVQCADAATYYCQNYYGSSSSVHAFGGGTEVVVKG
OUTCOME_MEASURE: A450
EXPERIMENTAL_RESULT: 1.25 A450

(Q) // query A450 value for entry anti-CP mAb C (antibody, V domains shown, Recombinant full-length rabbit IgG from HEK-293; also called mAb2) VH: QSVEESGGRLVTPGTPLTLTCTASGFSLSRYYMSWVRQAPGKGLEWIGMIYPSSGSTWYASWVKGRFTISATATSVDLKITSPTTEDTATYFCVRDRYPGYNGDSFNLWGQGTLVTVSS VL: AQVLTQTASPVSAAVGSTVTINCQASQSVYNNNYLAWFQQKPGQPPKRLIYQASKLAIGVPSRFSGSGSGTQFTLTISDVQCDDAATYYCLGSYGCNSVDCNVFGGGTEVVVKG
(A) 1.27 A450

This collection of values is drawn from patent US20240044920A1.
